Exercise: for every item that follows, state its recorded MIC.
System: Streptococcus pneumoniae
assay-comment: Antimicrobial activity against extended spectrum beta-lactamases-producing Streptococcus pneumoniae 10-1 after 18-24 hrs by two-fold serial dilution method
Assay type: functional
Record the value in µg/mL, omitting the unit from your answer.

MIC of COc1cc(CO/N=C2\CN(c3nc4c(cc3F)c(=O)c(C(=O)O)cn4C3CC3)CC2CN)cc(OC)c1OC.CS(=O)(=O)O (racemic) on Streptococcus pneumoniae? 1

MIC of COc1ccc(CO/N=C2\CN(c3nc4c(cc3F)c(=O)c(C(=O)O)cn4C3CC3)CC2CN)c(OC)c1.CS(=O)(=O)O (racemic) on Streptococcus pneumoniae? 1

MIC of CS(=O)(=O)O.NCC1CN(c2nc3c(cc2F)c(=O)c(C(=O)O)cn3C2CC2)C/C1=N\OCc1cc2c(cc1Cl)OCO2 (racemic) on Streptococcus pneumoniae? 0.5

MIC of COc1cc(CO/N=C2\CN(c3nc4c(cc3F)c(=O)c(C(=O)O)cn4C3CC3)CC2CN)c([N+](=O)[O-])cc1OC.CS(=O)(=O)O (racemic) on Streptococcus pneumoniae? 1

MIC of CS(=O)(=O)O.Cc1ccc(CO/N=C2\CN(c3nc4c(cc3F)c(=O)c(C(=O)O)cn4C3CC3)CC2CN)cc1C (racemic) on Streptococcus pneumoniae? 0.125

MIC of COc1ccc(CO/N=C2\CN(c3nc4c(cc3F)c(=O)c(C(=O)O)cn4C3CC3)CC2CN)cc1.CS(=O)(=O)O (racemic) on Streptococcus pneumoniae? 0.125

MIC of COc1ccc(CO/N=C2\CN(c3nc4c(cc3F)c(=O)c(C(=O)O)cn4C3CC3)CC2CN)cc1OC.CS(=O)(=O)O (racemic) on Streptococcus pneumoniae? 0.5

MIC of COc1cccc(CO/N=C2\CN(c3nc4c(cc3F)c(=O)c(C(=O)O)cn4C3CC3)CC2CN)c1OC.CS(=O)(=O)O (racemic) on Streptococcus pneumoniae? 0.125

MIC of COc1ccc(CO/N=C2\CN(c3nc4c(cc3F)c(=O)c(C(=O)O)cn4C3CC3)CC2CN)c(OC)c1OC.CS(=O)(=O)O (racemic) on Streptococcus pneumoniae? 0.5
